Below, each entry is listed alongside its reported Half Life (t1/2).
ASSAY EXPLANATION: In vitro plasma stability by porcine plasma incubation at 37° C.
Assay type: in vitro ADME
EXPERIMENTAL CONTEXT: pooled porcine plasma, 100 μg/ml, HPLC after SEP-PAK extraction
Where no end group is shown, it is not given here.

Examples with answers:
Problem: I would be grateful if you could share the reported Half Life (t1/2) for YVDAIFTNSYRKVLAQLSARKLLQDILSRQQG [[Val^2,Ala^15,Leu^27]-GRF(1-32)-OH] .
Solution: 1.17 h

Problem: I would be grateful if you could share the reported Half Life (t1/2) for HVDAIFTNSYRKVLAQLSARKLLQDIMSR-NH2 [[His^1,Val^2,Ala^15]-GRF(1-29)-NH2] .
Solution: 1 h

Problem: I would be grateful if you could share the reported Half Life (t1/2) for HVDAIFTNSYRKVLAQLSARKLLQDILSRQQG .
Solution: 1 h

Turning now to a further substance:
Problem: I would be grateful if you could share the reported Half Life (t1/2) for YADAIFTNSYRKVLAQLSARKLLQDIMSR-NH2 [[Ala^15]-GRF(1-29)-NH2, reference compound] .
Solution: 0.283 h
